Recorded ALP for the following compounds
Species: Rattus norvegicus
Experiment: Open TG-GATES - Regimen: Single
Format: toxicity, organism-based, Sprague-Dawley
Set-up: regimen Single, gender Male, age 6 weeks
Conditions: in vivo, po, 100 mg/kg, 6 h, tissue Plasma, route gavage, dose level Low
EXPERIMENTAL_ENDPOINT: ALP

- COMPOUND: "Clc1ccccc1CN1CCc2sccc2C1 [TICLOPIDINE]"
  EXPERIMENTAL_ENDPOINT: "ALP"
  VALUE_OBSERVED: "940.2 IU/L"
- COMPOUND: "C[C@H](CS)C(=O)N1CCC[C@H]1C(=O)O [CAPTOPRIL]"
  EXPERIMENTAL_ENDPOINT: "ALP"
  VALUE_OBSERVED: "794.8 IU/L"
- COMPOUND: "O=C(O)c1cc(/N=N/c2ccc(S(=O)(=O)Nc3ccccn3)cc2)ccc1O [SULFASALAZINE]"
  EXPERIMENTAL_ENDPOINT: "ALP"
  VALUE_OBSERVED: "986.4 IU/L"
- COMPOUND: "O=C(O)c1cn(C2CC2)c2cc(N3CCNCC3)c(F)cc2c1=O [CIPROFLOXACIN]"
  EXPERIMENTAL_ENDPOINT: "ALP"
  VALUE_OBSERVED: "779.4 IU/L"
- COMPOUND: "CCc1cc(C(N)=S)ccn1 [ETHIONAMIDE]"
  EXPERIMENTAL_ENDPOINT: "ALP"
  VALUE_OBSERVED: "908.4 IU/L"
